The origin of these recorded values is PubChem BioAssay.

- PROTOCOL_DETAILS: inhibitors of TNFa-induced NFkB p65 translocation, primary screen, imaging, HUVEC, MLSMR starter and 10KST1 sets (AID 438);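 further: compound added about 3h40 before a 20 min TNFalpha stimulation; signal is the nuclear over cytoplasmic p65 intensity ratio per well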
- EXPERIMENTAL_SETUP: HUVEC TNFa-induced p65 nuclear translocation; at 2 µM, 0% TNFa-plus-vehicle, 100% no-TNFa wells
Calls of active or inactive are those of the source.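 How the source made its calls: active means inhibition above 20% together with a positive visual image hit; inconclusive means visual image hit but inhibition not above 20%; inactive means no visual image hit.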
Outcomes: YES for active, NO for inactive

> print(dat)
                                    compound  label.class
 1      CCCCOn1c(C)c(C(=O)OCC)c2c3nonc3ccc21           NO
 2  CCOc1ccc(S(=O)(=O)N(C)CCO)cc1-c1nc2c(C(C)(C)C)nn(C)c2c(=O)[nH]1           NO
 3     CC(=O)C1=C(C)NC(C)=C(C(C)=O)C1c1cccs1           NO
 4      CCc1noc(C)c1C(=O)NCCc1ccc(OC)c(OC)c1           NO
 5       Cn1c(=O)n(CC(=O)Nc2ccccc2)c2ccccc21           NO
 6      CCCCCc1c(C)nc(N2CCc3ccccc32)[nH]c1=O           NO
 7          Nc1c2c(nc3ccccc13)N(c1ccccc1)CC2           NO
 8  CC(C)C(NC(=O)c1ccco1)C(=O)NCC(c1ccco1)N1CCCCC1 (centres undefined)           NO
 9  CCN(CC)CCCN1C(=O)C(O)=C(C(C)=O)C1c1cccc(OC)c1 (centres undefined)           NO
10  Cc1ccccc1OCc1nnc2n1CC(C)S2 (centres undefined)           NO
11      Nc1nc(-c2ccc(Cl)cc2)nn1C(=O)c1cccnc1           NO
12  CCCn1c(SCC(=O)Nc2ccccc2C(=O)OCC)nc2c1c(=O)n(C)c(=O)n2C           NO
13  O=c1c2cc(N3CCOCC3)ccc2[nH]c(=S)n1CCCN1CCCC1           NO
14  COc1cc(S(=O)(=O)N2CCN(c3ccc(F)cc3)CC2)ccc1Cl           NO
15  O=C(Cn1cnc2ccccc2c1=O)NCCC(=O)N1CCN(c2ccccc2)CC1           NO
16                COc1cccc(C(=O)NC2=NCCS2)c1           NO
17              CCCc1cc(C(=O)Nc2ccccc2SC)no1           NO
18              Cc1cn2c(-c3ccc(Cl)cc3)nnc2s1           NO
19  CC(=O)Nc1ccc(N=Cc2nc(-c3ccc(C)cc3)oc2O)cc1           NO
20  O=C(CSc1nc2ccccc2c(=O)n1CC1CCCCC1)N1CCOCC1           NO
21  CCOC(=O)c1cc2c(=O)n3ccccc3nc2n(CC2CCCO2)c1=NC(C)=O (centres undefined)           NO
22  O=C(C1CCC(N2C(=O)C3CC=CCC3C2=O)CC1)N1CCCCC1 (centres undefined)          YES
23  COc1ccc2[nH]c(C)c(CCN3C(=O)OC(C)(C)C3(C)O)c2c1 (centres undefined)           NO
24  COC(=O)C1=C(C)OC(N)=C(C#N)C1c1c(C)nn(-c2ccccc2)c1Cl (centres undefined)           NO

###

- PROTOCOL_DETAILS: inhibitors of TNFa-induced NFkB p65 translocation, primary screen, imaging, HUVEC, MLSMR starter and 10KST1 sets (AID 438);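 further: compound added about 3h40 before a 20 min TNFalpha stimulation; signal is the nuclear over cytoplasmic p65 intensity ratio per well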
- EXPERIMENTAL_SETUP: HUVEC TNFa-induced p65 nuclear translocation; at 2 µM, stronger effect = higher value, 0% TNFa-plus-vehicle, 100% no-TNFa wells
Where a SMILES comes first, the peptide text is derived from it. The star is where a group is joined. Boc = CC(C)(C)OC(=O)*
ASSAY_READOUT: inhibition (%)

> print(dat)
                                   molecule  experimental.value
1       O=C(CSc1nccn1-c1cccc(Cl)c1)NC1CCCC1                -9.5
2  CSCCC(NC(=O)OC(C)(C)C)C(=O)NC(CC(C)C)C(N)=O (stereo not drawn) (Boc-Met-Leu-NH2; configuration not given here)                -2.1
3  Cc1oc(-c2ccc(Cl)cc2)cc1-c1nn2c(-c3ccoc3C)nnc2s1                -3.9
4  CCOC(=O)c1[nH]c2ccc(F)cc2c1N=C(C)N(CC)CC                -7.1
5             CC/C(O)=C(/C#N)c1nnc2n1CCCCC2                 3.6

###

- PROTOCOL_DETAILS: inhibitors of E-selectin induction by TNFa, primary screen, imaging, HUVEC, immunofluorescence, MLSMR starter and 10KST1 sets (AID 487);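 further: 100% = median nuclei count of all wells on the same plate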
- EXPERIMENTAL_SETUP: HUVEC TNFalpha-induced E-selectin immunofluorescence imaging, at 2 µM; measured here: cell number, toxicity
# nuclei count values compiled below
ASSAY_READOUT: nuclei count (%)

> print(dat)
                                    compound  assay.readout  experimental.value
 1   C=CCn1c(SCC(=O)Nc2ccccc2OC)nnc1-c1ccco1   nuclei count                 120
 2  N#Cc1c(NC(NC(=O)c2ccco2)C(=O)c2ccccc2)sc2c1CCCC2 (stereo not given)   nuclei count                 121
 3             COc1ccc(Cn2nnnc2CN2CCOCC2)cc1   nuclei count                97.7
 4  O=C(NCCCn1ccnc1)c1cnn2c1NC(c1ccccc1)CC2C(F)(F)F (stereo not given)   nuclei count                  93
 5  Cc1oc(-c2ccc(Cl)cc2)cc1-c1nn2c(-c3ccoc3C)nnc2s1   nuclei count                 105
 6      CCCn1c(C)cc(C(=O)COc2ncnc3sccc23)c1C   nuclei count                 115
 7  Cc1oc(-c2cccc(Cl)c2)nc1CN1CCC(C(=O)N2CCN(c3ccccc3F)CC2)CC1   nuclei count                 108
 8  CCOC(=O)c1c(C)n(C)c2ccc(OC)c(NC(=O)CN3CCC4(CC3)OCCO4)c12   nuclei count                 178
 9  CC1Cc2ccccc2N1S(=O)(=O)c1ccc2c(c1)n(C)c(=O)c(=O)n2C (stereo not given)   nuclei count                 111
10  CCOC(=O)C1CCN(c2ncnc3c2cnn3-c2ccc(OC)cc2)CC1   nuclei count                 191

###

- SYSTEM_TESTED: Dual specificity protein phosphatase 6 (Homo sapiens)
- PROTOCOL_DETAILS: DUSP6 inhibitors restoring Erk phosphorylation by chemical complementation, primary imaging in DUSP6-transfected HeLa (AID 609);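 further: phospho-Erk level distribution per well compared with pooled transfected vehicle control wells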
- EXPERIMENTAL_SETUP: HeLa MKP-3 transfected, phospho-Erk imaging KS statistic; at 10 µM; stronger effect = higher value; cells stimulated with TPA for 15 min
ASSAY_READOUT: inhibition (%)

> print(dat)
                                    molecule                             system.tested  assay.readout  experimental.value
 1              Cc1sc(-n2c(C)ccc2C)c(C#N)c1C  Dual specificity protein phosphatase 6 (Homo sapiens)     inhibition                7.73
 2              C[N+]1(CCNC(=O)/C=N/O)CCCCC1  Dual specificity protein phosphatase 6 (Homo sapiens)     inhibition              -0.624
 3     O=C1CCCN1c1ccc(S(=O)(=O)NCc2ccco2)cc1  Dual specificity protein phosphatase 6 (Homo sapiens)     inhibition                15.9
 4                 CSc1cc(C)nc(N(C)C(C)=O)n1  Dual specificity protein phosphatase 6 (Homo sapiens)     inhibition                5.35
 5     CCOC(=O)c1[nH]c2ccccc2c1N=C(C)N(CC)CC  Dual specificity protein phosphatase 6 (Homo sapiens)     inhibition                11.9
 6             O=C(Nc1ccccn1)c1ccc(=O)[nH]n1  Dual specificity protein phosphatase 6 (Homo sapiens)     inhibition                6.51
 7         CCc1nc2n[nH]c(N)c2c2c1CSC(C)(C)C2  Dual specificity protein phosphatase 6 (Homo sapiens)     inhibition                 -15
 8  CCCSc1nnc2n(Cc3ccccc3)c(=O)c3c4c(sc3n12)CCC4  Dual specificity protein phosphatase 6 (Homo sapiens)     inhibition               -4.59
 9          O=C(NCCc1ccccc1)/C(=N\O)c1ccccc1  Dual specificity protein phosphatase 6 (Homo sapiens)     inhibition                13.9
10       Cc1cc(C)n(S(=O)(=O)/C=C/c2ccccc2)n1  Dual specificity protein phosphatase 6 (Homo sapiens)     inhibition               -10.6
11  N#Cc1c(NCCN)nc(NCc2ccccc2)c2c1CCN(Cc1ccccc1)C2  Dual specificity protein phosphatase 6 (Homo sapiens)     inhibition                3.42
12          CC(C)OCCCNc1ncnc2c1cnn2-c1ccccc1  Dual specificity protein phosphatase 6 (Homo sapiens)     inhibition                15.4
13  CC(C)c1nc(N2CCOCC2)c(C#N)c2c1COC(C)(C)C2  Dual specificity protein phosphatase 6 (Homo sapiens)     inhibition               -9.53
14        c1ccc2c(N3CCCCC3)nc(N3CCCCC3)nc2c1  Dual specificity protein phosphatase 6 (Homo sapiens)     inhibition             1.9e-07
15  CCOC(=O)c1c(CN2CCN(CCO)CC2)n(C)c2cc(Br)c(OC)cc12  Dual specificity protein phosphatase 6 (Homo sapiens)     inhibition               -2.29
16  Cc1cc(N2C(=O)C(=O)/C(=C(/O)c3ccccc3)C2c2cccs2)no1 (stereo unspecified)  Dual specificity protein phosphatase 6 (Homo sapiens)     inhibition                6.04
17                      Cn1cccc1/C=N/n1cnnc1  Dual specificity protein phosphatase 6 (Homo sapiens)     inhibition               -4.59
18  COc1ccc(C2CC(c3ccccc3)Nc3nc(N)nn32)cc1 (stereo unspecified)  Dual specificity protein phosphatase 6 (Homo sapiens)     inhibition                1.48
19     Clc1ccc(-n2ncc3c(NCc4cccs4)ncnc32)cc1  Dual specificity protein phosphatase 6 (Homo sapiens)     inhibition                11.4
20            Cc1cc(CCC(=O)O)c(C)cc1CCC(=O)O  Dual specificity protein phosphatase 6 (Homo sapiens)     inhibition                5.35
21               O=C1c2ccccc2C(=O)N1c1ncccn1  Dual specificity protein phosphatase 6 (Homo sapiens)     inhibition                1.42
22  CC(NC(=O)CSc1nnc(COc2ccccc2)o1)c1ccccc1 (stereo unspecified)  Dual specificity protein phosphatase 6 (Homo sapiens)     inhibition               -6.86
23  CC1(C)Cc2c(c(-c3ccco3)[nH]c(=O)c2C#N)CS1  Dual specificity protein phosphatase 6 (Homo sapiens)     inhibition               -11.5
24                 Cc1nnc(N2CCOCC2)c2ccccc12  Dual specificity protein phosphatase 6 (Homo sapiens)     inhibition                1.63
25    O=C1c2ccccc2-c2onc3ccc(NCc4ccco4)c1c23  Dual specificity protein phosphatase 6 (Homo sapiens)     inhibition                10.9
26  C=CCN(CC=C)c1nc2ccccc2nc1C(C#N)C(=O)OC(C)C (stereo unspecified)  Dual specificity protein phosphatase 6 (Homo sapiens)     inhibition               -13.3
